system under test: hemagglutinin (HA) of influenza A/Solomon Islands/3/06 H1N1 (Influenza A virus A/Solomon …)
measurement protocol: ELISA, inactivated whole virions coated; transfection supernatant set 5
value kind: OD450 (OD450)
Write the number in OD450 without appending the unit.

Data point: TCN-550 (5096_F06) (antibody, V domains shown) VH: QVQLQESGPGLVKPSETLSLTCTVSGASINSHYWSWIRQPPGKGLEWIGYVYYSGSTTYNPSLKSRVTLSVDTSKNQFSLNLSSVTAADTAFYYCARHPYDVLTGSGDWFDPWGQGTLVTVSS VL: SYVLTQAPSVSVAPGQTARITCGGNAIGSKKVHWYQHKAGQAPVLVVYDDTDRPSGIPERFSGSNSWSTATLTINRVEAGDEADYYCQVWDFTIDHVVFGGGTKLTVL ; OD450 = 0.13

Data point: TCN-554 (5277_M05) (antibody, V domains shown) VH: QVQLVQSGADLKKPGASVKVSCKASGYTFTDYYIHWVRQAPGQGLEWMGWINPESGDTKYAQKFQGRVTMTRDTSITTAYMELGRLRSDDTAVYYCARDVSTTWSWFAPWGQGTLVTVSS VL: DIVMTQSPDSLAVSLGERATINCRSSQSIFHNSNNENYLAWYQQKPGQPPKLLIYWASTRESGVPDRFSGSGSGTDFTLTISSLQAEDVAVYFCQQYYNAPLTFGGGTKVEIK ; OD450 = 0.18

Data point: TCN-537 (3194_D21) (antibody, V domains shown) VH: QVQLQQWGSGLLKPSETLSLTCAVYGGSFRDDYWTWIRQPPGKGLEWIGEINHSGRTNYNPSLKSRVTISVDTSLKQFSLKVISVTAADTAVYYCARGTSHVSRYFDWLPPTNWFDPWGQGTQVTVSS VL: DIVLTQSPGTLSLSPGERATLSCRASQSVSSSYLAWYQQKPGQAPRLVMYGAATRATGIPDRFSGSGSGPDFTLTISRLEPEDFAMYYCQQYGNSPITFGQGTRLEIK ; OD450 = 3.56
